Biological target: i20S (20S immunoproteasome) (Homo sapiens, UniProt P20618+P28062)
Experiment: 20S proteasome assay, chymotrypsin-like activity (LLVY), i20S
Type: biochemical
Details: LLVY i20S Hu 1 h CONT: IC50 (nM), succinyl-Leu-Leu-Val-Tyr-AMC
endpoint: IC50 (nM)

Known results for compounds:
COc1ccc(C[C@H](NC(=O)[C@H](CN2CCOCC2)NC(=O)c2cc(C)no2)C(=O)N[C@@H](CC2CCCC2)C(=O)[C@@]2(C)CO2)cc1 [Compound C-2044]: 1600
COc1ccc(C[C@H](NC(=O)[C@@H]2CCC(=O)N2)C(=O)N[C@@H](Cc2ccccc2)C(=O)[C@@]2(C)CO2)cc1 [Compound C-3013]: 4050
COc1ccc(C[C@H](NC(=O)[C@@H](C)NC(=O)Cc2cc(C)no2)C(=O)N[C@@H](CC2CCCC2)C(=O)[C@@]2(C)CO2)cc1 [Compound C-2015]: 2920
COc1ccc(C[C@H](NC(=O)[C@@H](C)NC(=O)CC(C)(C)O)C(=O)N[C@@H](CC2CCCC2)C(=O)[C@@]2(C)CO2)cc1O [Compound C-2059]: 15.9

a: COc1ccc(C[C@H](NC(=O)[C@@]2(C)CCC(=O)N2)C(=O)N[C@@H](Cc2ccccc2)C(=O)[C@@]2(C)CO2)cc1 [Compound C-3010]
b: COc1ccc(C[C@H](NC(=O)[C@@H](C)NC(=O)CC(C)(C)O)C(=O)N[C@@H](CC2=CCCC2)C(=O)[C@@]2(C)CO2)cc1O [Compound C-2060]
c: COc1ccc(C[C@H](NC(=O)[C@@H](C)NC(=O)c2cc(C)no2)C(=O)N[C@@H](CC2CCCC2)C(=O)[C@@]2(C)CO2)cc1 [Compound C-2023]
Challenge: Rank by IC50 (largest to smallest). Use the labels to give the ranking in the order requested.
Response given: a, c, b
(a: 1610 nM, c: 55.3 nM, b: 17.3 nM)
